Measured values drawn from paper PMC8232621 for this set.

Tested on: SE03
measurement_protocol: Real-time ethidium bromide accumulation assay (efflux pump inhibition)
Assay type: cell-based, Salmonella enterica serovar Typhimurium SL1344
condition_info: compounds 50 µM (compound 12 at 17 µM), CCCP 25 µM, minute 60, EB 1 µg/mL
As shown below, each of these compounds has a reported RFI ± SD value.
Please reply with the number alone, leaving off any unit.

See these solved cases before continuing.
CCCOc1ccc2ncnc3c2c1Sc1ccccc1-3 [Compound 15] :: 0.54
CCCOc1ccc2nc(N)nc3c2c1Sc1ccccc1-3 [Compound 16] :: 7.52
CCCOc1ccc(NCCN(CC)CC)c2c(=O)c3ccccc3sc12 [Compound 2] :: −0.02
CCCOc1ccc(OC)c2c(=O)c3ccccc3sc12 [Compound 4] :: −0.10

q: Request the reported RFI ± SD associated with CCCOc1ccc(N2CCNC(=O)C2)c2c(=O)c3ccccc3sc12 [Compound 9]
a: 1.54

q: Request the reported RFI ± SD associated with CCCOc1ccc2c3c(n/c(=N\c4ccccc4C)n2-c2ccccc2C)-c2ccccc2Sc13 [Compound 18]
a: 0.20

q: Request the reported RFI ± SD associated with CCCOc1ccc(Br)c2c(=O)c3ccccc3sc12 [Compound 14, 1-Bromo-4-propoxy-9H-thioxanthen-9-one]
a: 0.87

q: Request the reported RFI ± SD associated with CCCOc1ccc2nc(NCc3ccccc3Cl)nc3c2c1Sc1ccccc1-3 [Compound 17]
a: 25.51

q: Request the reported RFI ± SD associated with CCCOc1ccc(NCCN2CCOCC2)c2c(=O)c3ccccc3sc12 [Compound 11]
a: 1.37

q: Request the reported RFI ± SD associated with CCCOc1ccc(NCCc2nc3ccccc3[nH]2)c2c(=O)c3ccccc3sc12 [Compound 5]
a: −0.20

* * *

Test system: SE03
measurement_protocol: Real-time ethidium bromide accumulation assay (efflux pump inhibition)
Assay type: cell-based, Salmonella enterica serovar Typhimurium SL1344
condition_info: compounds 50 µM (compound 12 at 17 µM), CCCP 25 µM, minute 60, EB 1 µg/mL
As shown below, each of these compounds has a reported RFI ± SD value.
Please reply with the number alone, leaving off any unit.

See these solved cases before continuing.
CCCOc1ccc(NCCO)c2c(=O)c3ccccc3sc12 :: 6.00
N#CC(C#N)=NNc1cccc(Cl)c1 [CCCP, carbonyl cyanide 3-chlorophenylhydrazone, reference compound] :: 0.23
CCCOc1ccc(N2CCCCC2)c2c(=O)c3ccccc3sc12 :: 0.67
CCCOc1ccc(Nc2nc(C)cc(C)n2)c2c(=O)c3ccccc3sc12 :: 0.74
CCCOc1ccc(NS(=O)(=O)c2ccc(C(=O)O)cc2)c2c(=O)c3ccccc3sc12 :: −0.21

q: Request the reported RFI ± SD associated with "CCCOc1ccc(NS(=O)(=O)c2ccc(N)cc2)c2c(=O)c3ccccc3sc12"
a: 1.23

q: Request the reported RFI ± SD associated with "CCCOc1ccc(N2CCN(C(C)=O)CC2)c2c(=O)c3ccccc3sc12"
a: 0.49

q: Request the reported RFI ± SD associated with "CCCOc1ccc(NCCc2ccc([N+](=O)[O-])cc2)c2c(=O)c3ccccc3sc12"
a: −0.20

* * *

System: E. faecalis ATCC 29212
measurement_protocol: Antibacterial activity, broth microdilution MIC
Assay type: cell-based
condition_info: Enterococcus faecalis, ATCC29212; E. faecalis ATCC 29212; read-out: Minimum Inhibitory Concentration (MIC)
quantity: MIC

See these solved cases before continuing.
CCCOc1ccc(N2CCNC(=O)C2)c2c(=O)c3ccccc3sc12 :: > 100 µM
CCCOc1ccc(NS(=O)(=O)c2ccc(C(=O)O)cc2)c2c(=O)c3ccccc3sc12 :: 16 µg/mL
CCCOc1ccc(Br)c2c(=O)c3ccccc3sc12 :: > 100 µM

Turning now to a further compound:
q: Request the reported MIC associated with "CCCOc1ccc2nc(N)nc3c2c1Sc1ccccc1-3"
a: > 100 µM

* * *

Tested on: S. marcescens
measurement_protocol: Quorum sensing inhibition assay (pigment production)
Assay type: cell-based, Serratia marcescens AS-1
condition_info: Serratia marcescens, read-out: Quorum Sensing Inhibition (mm) ± SD
quantity: zone of inhibition at 10000 µM (mm)
State just the number; it will be interpreted in mm.

See these solved cases before continuing.
CCCOc1ccc(NCCN2CCOCC2)c2c(=O)c3ccccc3sc12 [Compound 11] :: 31
CC(CN1c2ccccc2Sc2ccccc21)N(C)C (stereo not drawn) [PMZ, promethazine, reference compound] :: 18
CCCOc1ccc(NS(=O)(=O)c2ccc(N)cc2)c2c(=O)c3ccccc3sc12 [Compound 13] :: 0
CCCOc1ccc(NS(=O)(=O)c2ccc(C(=O)O)cc2)c2c(=O)c3ccccc3sc12 [Compound 12] :: 0
CCCOc1ccc(N2CCCCC2)c2c(=O)c3ccccc3sc12 [Compound 3] :: 0

q: Request the reported zone of inhibition at 10000 µM associated with CCCOc1ccc(OC)c2c(=O)c3ccccc3sc12 [Compound 4]
a: 0

q: Request the reported zone of inhibition at 10000 µM associated with CCCOc1ccc(Nc2nc(C)cc(C)n2)c2c(=O)c3ccccc3sc12 [Compound 8]
a: 0

q: Request the reported zone of inhibition at 10000 µM associated with CCCOc1ccc2nc(NCc3ccccc3Cl)nc3c2c1Sc1ccccc1-3 [Compound 17]
a: 0

q: Request the reported zone of inhibition at 10000 µM associated with CCCOc1ccc(NCCc2nc3ccccc3[nH]2)c2c(=O)c3ccccc3sc12 [Compound 5]
a: 0

* * *

measurement_protocol: Cytotoxicity in NIH/3T3 cell line (MTT assay)
Type: cell-based
condition_info: mouse, NIH/3T3 mouse fibroblast cells, read-out: IC50 (µM) ± SD, cytotoxicity
quantity: IC50 at 24 h (µM)
State just the number; it will be interpreted in µM.

q: Request the reported IC50 at 24 h associated with "CCCOc1ccc(NS(=O)(=O)c2ccc(C(=O)O)cc2)c2c(=O)c3ccccc3sc12"
a: 64.5

q: Request the reported IC50 at 24 h associated with COc1cccc2c1C(=O)c1c(O)c3c(c(O)c1C2=O)C[C@@](O)(C(=O)CO)C[C@@H]3O[C@H]1C[C@H](N)[C@H](O)[C@H](C)O1 [Doxorubicin, doxorubicin, reference compound]
a: 12.1

* * *

Test system: E. coli SA/2
measurement_protocol: Synergy with cefotaxime (antibiotic MIC in presence of compound)
Format: cell-based
As shown below, each of these compounds has a reported decrease in the MIC of CTX value.
Reply with the number, then its unit.

See these solved cases before continuing.
CCCOc1ccc(Nc2nc(C)cc(C)n2)c2c(=O)c3ccccc3sc12 :: 4 fold
CCCOc1ccc2c3c(n/c(=N\c4ccccc4C)n2-c2ccccc2C)-c2ccccc2Sc13 :: 4 fold
CCCOc1ccc(NCCO)c2c(=O)c3ccccc3sc12 :: 4 fold

q: Field: decrease in the MIC of CTX (E. coli SA/2). Entry: "CCCOc1ccc(NS(=O)(=O)c2ccc(C(=O)O)cc2)c2c(=O)c3ccccc3sc12"
a: 16 fold

* * *

measurement_protocol: Cytotoxicity in NIH/3T3 cell line (MTT assay)
Format: cell-based
condition_info: mouse, read-out: IC50 (µM) ± SD, cytotoxicity
quantity: IC50 at 24 h

q: Request the reported IC50 at 24 h associated with CCCOc1ccc(N2CCCCC2)c2c(=O)c3ccccc3sc12 [Compound 3]
a: > 100 µM

* * *

System: Caco-2 cells
measurement_protocol: Cytotoxicity in Caco-2 cells, neutral red (NR) uptake assay
Type: cell-based, human
condition_info: 20 µM, 24 h after exposure
quantity: NR uptake (relative to control cells) (%)
State just the number; it will be interpreted in %.

See these solved cases before continuing.
CCCOc1ccc2ncnc3c2c1Sc1ccccc1-3 [Compound 15] :: 92.2
CCCOc1ccc2nc(NCc3ccccc3Cl)nc3c2c1Sc1ccccc1-3 [Compound 17] :: 95.5

q: Field: NR uptake (relative to control cells) (Caco-2 cells). Entry: CCCOc1ccc2nc(N)nc3c2c1Sc1ccccc1-3 [Compound 16]
a: 94.1

* * *

As shown below, each of these compounds has a reported IC50 at 24 h value.
measurement_protocol: Cytotoxicity in NIH/3T3 cell line (MTT assay)
Assay type: cell-based
condition_info: mouse, NIH/3T3 mouse fibroblast cells, read-out: IC50 (µM) ± SD, cytotoxicity
Method: Before each cytotoxicity assay using this cell line, cells were seeded in untreated 96-well flat-bottom microtiter plates, following a 4-hour incubation period in a humidified atmosphere (5% CO2, 95% air) at 37 °C [47]. […] Prior to the assay, the cells were seeded for 4 h using 1 × 10^4 cells/well. […] Cell growth was determined in quadruplicate by measuring OD at λ = 540 nm (reference 630 nm) in a Multiscan EX ELISA reader (Thermo Labsystems, Cheshire, WA, USA). […]

CCCOc1ccc(Nc2nc(C)cc(C)n2)c2c(=O)c3ccccc3sc12 :: > 100 µM

q: Request the reported IC50 at 24 h associated with "CCCOc1ccc(NS(=O)(=O)c2ccc(N)cc2)c2c(=O)c3ccccc3sc12"
a: > 100 µM

q: Request the reported IC50 at 24 h associated with "CCCOc1ccc2nc(NCc3ccccc3Cl)nc3c2c1Sc1ccccc1-3"
a: > 100 µM
